Measured IC50, listed per entry for reference.
system: SYO-1 complex spheroid growth, percent test/control; test: Anticancer human tumor SYO-1 cell line growth inhibition [Asc]; settings: curve of first compound; second compound 0.01 µM;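 further: compound exposure lasted 7 days after spheroids grew 3 days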

Below, each entry is followed by its recorded IC50 result.
>  <Compound>
Cc1nc(N2CCC3(CC2)COC(C)C3N)c(CO)nc1Sc1ccnc(N)c1Cl (stereo not given) + CNC(C)C(=O)NC1CN(S(=O)(=O)c2cccc(S(=O)(=O)N3CCC4CCC(C(=O)NC(c5ccccc5)c5ccccc5)N4C(=O)C(NC(=O)C(C)NC)C3)c2)CCC2CCC(C(=O)NC(c3ccccc3)c3ccccc3)N2C1=O

>  <Readout Type>
IC50

>  <Result>
> 3 µM

$$$$
>  <Compound>
C=CC(=O)N1CCN(c2nc(=O)n(-c3c(C)ccnc3C(C)C)c3nc(-c4c(O)cccc4F)c(F)cc23)C(C)C1 (stereo not given) + CNC(C)C(=O)NC1CN(S(=O)(=O)c2cccc(S(=O)(=O)N3CCC4CCC(C(=O)NC(c5ccccc5)c5ccccc5)N4C(=O)C(NC(=O)C(C)NC)C3)c2)CCC2CCC(C(=O)NC(c3ccccc3)c3ccccc3)N2C1=O

>  <Readout Type>
IC50

>  <Result>
> 10 µM

$$$$
>  <Compound>
O=C(c1ccc(F)c(F)c1Nc1ccc(I)cc1F)N1CC(O)([C@@H]2CCCCN2)C1 + CNC(C)C(=O)NC1CN(S(=O)(=O)c2cccc(S(=O)(=O)N3CCC4CCC(C(=O)NC(c5ccccc5)c5ccccc5)N4C(=O)C(NC(=O)C(C)NC)C3)c2)CCC2CCC(C(=O)NC(c3ccccc3)c3ccccc3)N2C1=O

>  <Readout Type>
IC50

>  <Result>
> 1 µM

$$$$
>  <Compound>
NC(=O)C(=Cn1cnc(-c2cc(C(F)(F)F)cc(C(F)(F)F)c2)n1)c1cncnc1 + CNC(C)C(=O)NC1CN(S(=O)(=O)c2cccc(S(=O)(=O)N3CCC4CCC(C(=O)NC(c5ccccc5)c5ccccc5)N4C(=O)C(NC(=O)C(C)NC)C3)c2)CCC2CCC(C(=O)NC(c3ccccc3)c3ccccc3)N2C1=O

>  <Readout Type>
IC50

>  <Result>
0.281 µM

$$$$

Q: What measured IC50 goes with C#Cc1c(F)ccc2cc(O)cc(-c3ncc4c(N5CC6CCC(C5)N6)nc(OCC56CCCN5CC(F)C6)nc4c3F)c12 (stereo not given) + CNC(C)C(=O)NC1CN(S(=O)(=O)c2cccc(S(=O)(=O)N3CCC4CCC(C(=O)NC(c5ccccc5)c5ccccc5)N4C(=O)C(NC(=O)C(C)NC)C3)c2)CCC2CCC(C(=O)NC(c3ccccc3)c3ccccc3)N2C1=O ?
Ans: > 10 µM

---

test system: SYO-1 complex spheroid growth, percent test/control; assay: Anticancer human tumor SYO-1 cell line growth inhibition [Asc]; conditions: second compound 0.3 µM; first compound 1 µM; stronger effect = lower value;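 further: compound exposure lasted 7 days after spheroids grew 3 days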
Hi! Could you tag entries with viability, T/C below 4% as TRUE, and those at or above as FALSE? Much appreciated.

>  <Compound>
CNC(C)C(=O)NC1CN(S(=O)(=O)c2cccc(S(=O)(=O)N3CCC4CCC(C(=O)NC(c5ccccc5)c5ccccc5)N4C(=O)C(NC(=O)C(C)NC)C3)c2)CCC2CCC(C(=O)NC(c3ccccc3)c3ccccc3)N2C1=O (stereo not drawn) + CCN1C(C(=O)NC23CCC(C(=O)O)(CC2)CC3)C(c2cccc(Cl)c2F)C2(C(=O)Nc3cc(Cl)ccc32)C12CCCCC2

>  <Measured On>
SYO-1 complex spheroid growth, percent test/control

>  <Label Value>
FALSE

$$$$
>  <Compound>
C=CC(=O)N1CCN(c2nc(=O)n(-c3c(C)ccnc3C(C)C)c3nc(-c4c(O)cccc4F)c(F)cc23)C(C)C1 (stereo not drawn) + CCN1C(C(=O)NC23CCC(C(=O)O)(CC2)CC3)C(c2cccc(Cl)c2F)C2(C(=O)Nc3cc(Cl)ccc32)C12CCCCC2

>  <Measured On>
SYO-1 complex spheroid growth, percent test/control

>  <Label Value>
FALSE

$$$$
>  <Compound>
C#Cc1c(F)ccc2cc(O)cc(-c3ncc4c(N5CC6CCC(C5)N6)nc(OCC56CCCN5CC(F)C6)nc4c3F)c12 (stereo not drawn) + CCN1C(C(=O)NC23CCC(C(=O)O)(CC2)CC3)C(c2cccc(Cl)c2F)C2(C(=O)Nc3cc(Cl)ccc32)C12CCCCC2

>  <Measured On>
SYO-1 complex spheroid growth, percent test/control

>  <Label Value>
FALSE

$$$$
>  <Compound>
CCN1CCN(Cc2ccc(Nc3ncc(F)c(-c4cc(F)c5nc(C)n(C(C)C)c5c4)n3)nc2)CC1 + CCN1C(C(=O)NC23CCC(C(=O)O)(CC2)CC3)C(c2cccc(Cl)c2F)C2(C(=O)Nc3cc(Cl)ccc32)C12CCCCC2

>  <Measured On>
SYO-1 complex spheroid growth, percent test/control

>  <Label Value>
TRUE

$$$$
>  <Compound>
O=C(c1ccc(F)c(F)c1Nc1ccc(I)cc1F)N1CC(O)([C@@H]2CCCCN2)C1 + CCN1C(C(=O)NC23CCC(C(=O)O)(CC2)CC3)C(c2cccc(Cl)c2F)C2(C(=O)Nc3cc(Cl)ccc32)C12CCCCC2

>  <Measured On>
SYO-1 complex spheroid growth, percent test/control

>  <Label Value>
TRUE

$$$$

Q: For this compound, is viability, T/C lower than 4%? O=C(c1cc(Cc2n[nH]c(=O)c3ccccc23)ccc1F)N1CCN(C(=O)C2CC2)CC1 + CCN1C(C(=O)NC23CCC(C(=O)O)(CC2)CC3)C(c2cccc(Cl)c2F)C2(C(=O)Nc3cc(Cl)ccc32)C12CCCCC2
Ans: FALSE

Q: For this compound, is viability, T/C lower than 4%? C=C(F)C(=O)N1CCN(c2nc(OCC3CCCN3C)nc3c2CCN(c2cccc4cccc(Cl)c24)C3)CC1CC#N (stereo not drawn) + CCN1C(C(=O)NC23CCC(C(=O)O)(CC2)CC3)C(c2cccc(Cl)c2F)C2(C(=O)Nc3cc(Cl)ccc32)C12CCCCC2
Ans: FALSE

Q: For this compound, is viability, T/C lower than 4%? COc1c(OCCCN2CCOCC2)ccc2c3n(c(=NC(=O)c4cnc(N)nc4)nc12)CCN3 + CCN1C(C(=O)NC23CCC(C(=O)O)(CC2)CC3)C(c2cccc(Cl)c2F)C2(C(=O)Nc3cc(Cl)ccc32)C12CCCCC2
Ans: TRUE
